B1: ANKRD40 (parent)
chain: SLRENDFIEIELDRQELTYQELLR

Variants of: B1
PROTOCOL_SUMMARY: protein stability index of a GFP-peptide fusion (GPS, HEK-293T) (PSI 1-6); higher = more stable;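 further: lentivirally expressed fusions sorted by FACS into six bins by GFP to DsRed ratio, PSI derived from sequencing read proportions per bin multiplied by bin number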
RUN_PARAMETERS: c terminus: a fixed tail appended
Could you label it class 1 if measured protein stability index is 3 or higher, and class 0 otherwise?

Worked set:
| MUTATION_ANNOTATION | ANSWER_LABEL |
| --- | --- |
| T18F | class 0 |
| R14K | class 1 |
| N5L | class 0 |
| Y19M | class 1 |
| E21M | class 0 |

*Q* Hi, just wondering whether E16M shows protein stability index of 3 or higher.
*A* class 0

*Q* Hi, just wondering whether Q20M shows protein stability index of 3 or higher.
*A* class 0

*Q* Hi, just wondering whether I10Y shows protein stability index of 3 or higher.
*A* class 1

*Q* Hi, just wondering whether E11F shows protein stability index of 3 or higher.
*A* class 0

*Q* Hi, just wondering whether E21R shows protein stability index of 3 or higher.
*A* class 0

*Q* Hi, just wondering whether E21S shows protein stability index of 3 or higher.
*A* class 0
